Reported CTLA4 MFI at 33.3 nM values follow for various molecules
- System: huCTLA4 (Homo sapiens, UniProt P16410)
- Sequence (P16410 36-223): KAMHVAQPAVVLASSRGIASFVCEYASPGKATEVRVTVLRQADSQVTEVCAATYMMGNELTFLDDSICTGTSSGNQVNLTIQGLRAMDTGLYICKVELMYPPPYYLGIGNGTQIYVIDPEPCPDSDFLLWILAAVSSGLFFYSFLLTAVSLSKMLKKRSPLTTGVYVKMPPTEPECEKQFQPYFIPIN
- Test Details: Flow binding to CHO cells stably expressing CTLA4
- Set-up: huCTLA4 and huPD-L1, full-length mammalian surface expression constructs were generated; expressed in transfected cells; host or cells: CHO cells, lentiviral transduction, sorted to >98% purity
- Settings: Table E19; CHO cells stably expressing CTLA4; 33.3 nM

# Molecule, CTLA4 MFI at 33.3 nM
records = [
    ("M47V/K89N (protein) VIHVTKEVKEVATLSCGHNVSVEELAQTRIYWQKEKKMVLTMMSGDVNIWPEYKNRTIFDITNNLSIVILALRPSDEGTYECVVLKYENDAFKREHLAEVTLSVKAD", 32381),
    ("E35D/D46V/V68M (protein) VIHVTKEVKEVATLSCGHNVSVEELAQTRIYWQKDKKMVLTMMSGVMNIWPEYKNRTIFDITNNLSIMILALRPSDEGTYECVVLKYEKDAFKREHLAEVTLSVKAD", 31195),
    ("D46V/M47L/L85Q (protein) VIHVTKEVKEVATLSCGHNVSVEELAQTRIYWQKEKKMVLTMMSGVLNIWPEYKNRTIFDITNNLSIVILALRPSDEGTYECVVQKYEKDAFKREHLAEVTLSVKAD", 40153),
    ("N48K/K89N (protein) VIHVTKEVKEVATLSCGHNVSVEELAQTRIYWQKEKKMVLTMMSGDMKIWPEYKNRTIFDITNNLSIVILALRPSDEGTYECVVLKYENDAFKREHLAEVTLSVKAD", 4370),
]
